FYI, the data here is from paper PMC11903766.

Target under test: PARP1 (Homo sapiens)
Sequence (P09874 2-1014): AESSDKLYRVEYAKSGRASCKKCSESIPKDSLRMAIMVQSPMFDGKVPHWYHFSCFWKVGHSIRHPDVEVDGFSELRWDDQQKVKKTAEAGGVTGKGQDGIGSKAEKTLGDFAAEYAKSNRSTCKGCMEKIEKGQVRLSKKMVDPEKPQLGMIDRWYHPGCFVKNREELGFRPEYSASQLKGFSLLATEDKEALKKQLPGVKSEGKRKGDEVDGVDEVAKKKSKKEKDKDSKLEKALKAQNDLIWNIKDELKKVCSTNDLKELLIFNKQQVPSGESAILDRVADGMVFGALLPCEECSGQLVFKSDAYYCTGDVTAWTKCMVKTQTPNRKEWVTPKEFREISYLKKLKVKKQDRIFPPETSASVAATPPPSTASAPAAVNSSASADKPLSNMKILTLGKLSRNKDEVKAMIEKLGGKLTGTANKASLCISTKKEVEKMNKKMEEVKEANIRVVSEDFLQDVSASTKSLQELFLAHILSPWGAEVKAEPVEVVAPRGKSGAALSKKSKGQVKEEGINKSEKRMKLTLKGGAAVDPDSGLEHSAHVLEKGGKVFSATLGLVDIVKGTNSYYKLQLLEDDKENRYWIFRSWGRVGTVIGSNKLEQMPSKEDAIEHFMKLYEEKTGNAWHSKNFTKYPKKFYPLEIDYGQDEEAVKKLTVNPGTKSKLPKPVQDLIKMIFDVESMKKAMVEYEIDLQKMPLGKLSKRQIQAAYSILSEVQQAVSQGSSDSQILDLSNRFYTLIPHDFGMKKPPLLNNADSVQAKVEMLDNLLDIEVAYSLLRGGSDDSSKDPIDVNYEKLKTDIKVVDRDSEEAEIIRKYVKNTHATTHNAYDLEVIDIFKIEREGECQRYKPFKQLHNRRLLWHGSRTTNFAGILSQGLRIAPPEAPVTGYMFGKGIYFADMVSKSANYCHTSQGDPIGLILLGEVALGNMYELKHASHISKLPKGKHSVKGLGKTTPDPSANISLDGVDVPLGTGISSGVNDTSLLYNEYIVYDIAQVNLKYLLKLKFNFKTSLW
Test details: biochemical
Parameters: PARP1 ELISA on histone-coated plates, NAD+, anti-PAR antibody with HRP, chemiluminescence
Experimental: S53 Biological Assay Methods PARP1 inhibitory activity assay. The histone coated 384-well plates were prepared by adding 25 µL histone solution to each well and incubating overnight at 4°C. Prepared PBST buffer, blocking buffer, and assay buffer. […] Read chemiluminescence on Envision immediately after adding 25 µL of Femto-ECL Substrate A and Femto-ECL Substrate B (1:1) mix. The IC50 values were calculated by analyzing the concentration-response curves. […]
Readout type: inhibition at 10 µM (%)

{"Smiles representation": "CNC(=O)c1ccc(N2CCN(Cc3ccc4c(c3)[nH]c3ncccc34)CC2)cn1", "inhibition at 10 µM (%)": 98.8}
{"Smiles representation": "CCNC(=O)Nc1cc(CN2CCN(c3ccc(C(=O)NC)nc3)CC2)c2ccccc2n1", "inhibition at 10 µM (%)": 99.1}

1 = CCn1c(=O)[nH]c2sc(CN3CCN(c4ccc(C(=O)NC)nc4)CC3)c(C)c2c1=O
2 = CNC(=O)c1ccc(N2CCN(CC#Cc3cccc4cn[nH]c34)CC2)cn1
3 = O=C(c1ccc(C(F)(F)F)c(=O)[nH]1)N1CCN(c2ccc3cc[nH]c3c2)CC1
Could you please sort these 3 entries by inhibition at 10 µM from high to low? Response format: the labels, sorted as the prompt asks.
1, 2, 3
(1: 99%, 2: 47.4%, 3: 12.7%)
